test system: strains TA98; format: cell-based; settings: TA98, S-9 (-), 1250 μg/plate
readout.kind: Ames test: ratio of the number of colonies to control

# molecule, obs.value
rows = [
    ("Nc1ccc(N=Nc2ccc(N(c3ccccc3)c3ccc(N=Nc4c(S(=O)(=O)O)cc5cc(S(=O)(=O)O)c(N=Nc6ccc(S(=O)(=O)O)cc6)c(O)c5c4N)cc3)cc2)c(O)c1 [Ex. 4]", 0.99),
    ("Nc1ccc(N=Nc2ccc(Nc3ccc(N=Nc4c(S(=O)(=O)O)cc5cc(S(=O)(=O)O)c(N=Nc6ccccc6)c(O)c5c4N)cc3S(=O)(=O)O)cc2)c(O)c1 [compound 1, C.I. Direct Black 168, reference compound]", 0.88),
    ("Nc1ccc(N=Nc2ccc(N(c3ccccc3)c3ccc(N=Nc4c(S(=O)(=O)O)cc5cc(S(=O)(=O)O)c(N=Nc6ccccc6)c(O)c5c4N)cc3)cc2)c(O)c1 [Ex. 1]", 0.95),
    ("CCCCCCN(c1ccc(N=Nc2ccc(N)cc2O)cc1)c1ccc(N=Nc2c(S(=O)(=O)O)cc3cc(S(=O)(=O)O)c(N=Nc4ccccc4C)c(O)c3c2N)cc1 [Ex. 7]", 1.33),
    ("Cc1ccc(N(c2ccc(N=Nc3ccc(O)cc3O)cc2)c2ccc(N=Nc3c(S(=O)(=O)O)cc4cc(S(=O)(=O)O)c(N=Nc5ccccc5)c(O)c4c3N)cc2)cc1 [Ex. 2]", 1.06),
    ("CCCCCCCCN(c1ccc(N=Nc2ccc(N)cc2O)cc1)c1ccc(N=Nc2c(S(=O)(=O)O)cc3cc(S(=O)(=O)O)c(N=Nc4ccc(S(=O)(=O)O)cc4)c(O)c3c2N)cc1 [Ex. 8]", 0.93),
]
